molecular target: α7-subtype of nicotinic receptors (Rattus norvegicus); construct: Cerebral cortices from male Wistar rats (150-250 g) are homogenised; from tissue; host or cells: rat cerebral cortex membrane homogenate; experiment: In vitro inhibition of 3H-α-bungarotoxine binding in rat brain
Sequence (Q05941 23-502): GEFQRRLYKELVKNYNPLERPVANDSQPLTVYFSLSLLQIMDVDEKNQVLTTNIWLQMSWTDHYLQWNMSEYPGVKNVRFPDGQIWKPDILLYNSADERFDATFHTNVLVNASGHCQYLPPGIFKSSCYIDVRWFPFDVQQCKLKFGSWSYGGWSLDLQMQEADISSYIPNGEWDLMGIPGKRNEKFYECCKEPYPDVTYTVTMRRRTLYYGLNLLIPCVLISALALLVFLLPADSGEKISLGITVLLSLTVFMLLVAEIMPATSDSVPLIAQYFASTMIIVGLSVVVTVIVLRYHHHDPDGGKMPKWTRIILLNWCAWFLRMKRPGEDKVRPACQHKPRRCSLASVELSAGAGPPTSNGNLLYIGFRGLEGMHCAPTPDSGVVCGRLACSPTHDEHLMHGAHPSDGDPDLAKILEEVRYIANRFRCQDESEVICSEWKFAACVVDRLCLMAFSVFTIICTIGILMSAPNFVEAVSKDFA
readout.kind: IC50

### Prompt Name the reported IC50 value associated with the molecule CN1C2C=C(C#Cc3ccccc3)CC1CC2 (racemic)
### Response 320 nM

###

target: serotonin transporter (Rattus norvegicus, UniProt P31652); construct: Cerebral cortices from male Wistar rats (150-200 g) are homogenized; assay: In vitro inhibition of 3H-5-hydroxytryptamine uptake in cortical synaptosomes; details: 1 nM 3H-5-HT, 30 minutes at 37° C.
Sequence (P31652 whole entry): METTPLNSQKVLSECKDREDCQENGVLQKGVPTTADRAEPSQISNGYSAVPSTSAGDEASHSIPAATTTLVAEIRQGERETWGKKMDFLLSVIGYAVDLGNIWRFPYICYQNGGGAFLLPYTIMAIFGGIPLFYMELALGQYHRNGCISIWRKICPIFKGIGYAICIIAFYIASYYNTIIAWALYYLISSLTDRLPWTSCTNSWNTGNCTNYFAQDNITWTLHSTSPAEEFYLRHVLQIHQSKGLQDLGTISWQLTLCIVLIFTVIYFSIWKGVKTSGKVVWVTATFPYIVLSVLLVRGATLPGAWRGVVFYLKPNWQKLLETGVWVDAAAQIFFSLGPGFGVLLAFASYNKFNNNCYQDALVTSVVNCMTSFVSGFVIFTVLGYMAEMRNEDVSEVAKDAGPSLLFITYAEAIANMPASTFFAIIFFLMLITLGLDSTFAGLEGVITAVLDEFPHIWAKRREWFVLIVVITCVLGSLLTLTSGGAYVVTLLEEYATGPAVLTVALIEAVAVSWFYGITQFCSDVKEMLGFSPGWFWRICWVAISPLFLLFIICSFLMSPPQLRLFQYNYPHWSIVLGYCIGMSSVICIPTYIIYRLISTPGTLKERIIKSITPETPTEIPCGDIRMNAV
readout.kind: IC50 (µM)
The response must be a number in µM with no trailing unit.

### Prompt What does the data say about its IC50? Entry: C(#Cc1ccccc1)C1=CN2CCC1CC2 [Compound A1, (±)-3-Phenyletynyl-quinuclidin-2-ene]
### Response 0.42

### Prompt Entry to check: C[N+]12C=C(C#Cc3ccccc3)C(CC1)CC2 (racemic) [Compound B2]
### Response 0.1

### Prompt Further, for C(#Cc1ccccc1)C1=CC2CCC(C1)N2 (racemic) [Compound C1] ?
### Response 0.099

### Prompt Now the molecule CN1C2C=C(C#Cc3ccccc3)CC1CC2 (racemic) [Compound 1]
### Response 0.11
